B1: SMOC2 (parent)
chain: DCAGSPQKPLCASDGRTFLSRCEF

- Variants of: B1
- Method: protein stability index of a GFP-peptide fusion (GPS, HEK-293T) (PSI 1-6); higher = more stable;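 further: lentivirally expressed fusions sorted by FACS into six bins by GFP to DsRed ratio, PSI derived from sequencing read proportions per bin multiplied by bin number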
- Measurement Setup: c terminus: a fixed tail appended
Measurement Kind: protein stability index
Could you keep your reply to the number by itself?

Reference set, count: 2
| Variant Designation | Value |
| --- | --- |
| C11E | 3.46 |
| S13T | 2.91 |

# lookup: protein stability index of "D14F"
1.81

# lookup: protein stability index of "C11I"
2.56

# lookup: protein stability index of "A3H"
2.29

# lookup: protein stability index of "P6A"
1.73
